ASSAY REMARKS: binders from COS7 lysate, DM2A8 probe, primary screen, torsin A project, cell lysate, small-molecule microarray, fluorescence 635/667 (AID 1065)
ASSAY CONDITIONS: higher = more signal, COS7 lysate expressing mutant human TOR1A
MEASUREMENT LABEL: composite z-score

INSERT INTO measurements (smiles_repr, measurement_label, result) VALUES
  ('C=CC[C@]1(C(=O)N(C)C)N=C(c2ccc(OCCCO)cc2)O[C@H]1c1ccccc1CN=[N+]=[N-]', 'composite z-score', 1.42),
  ('O=C1c2ccccc2C(=O)c2cc([C@H]3Oc4ccccc4S(=O)(=O)N4CCC[C@@H]34)ccc21', 'composite z-score', -0.845),
  ('Cc1ccc(S[C@]2(C(=O)NCC(C)C)CC(=O)N(C(C)C)[C@@H]2c2ccc(CO)cc2)cc1', 'composite z-score', -0.691),
  ('COCCCNC(=O)[C@@]1(C)c2ccccc2C(=O)N(Cc2cc(F)cc(C(F)(F)F)c2)[C@H]1c1ccc(CO)cc1', 'composite z-score', -0.12),
  ('C=CCN1C(=O)[C@@]2(O[C@@H](CCn3cc(CCO)nn3)[C@H]([Si](C)(C)c3ccc(OC)cc3)[C@H]2C)c2cc(NC(=O)c3ccc(OC)cc3)ccc21', 'composite z-score', 0.463),
  ('CCCCC(=C=CC[C@H](O)c1cccc(OCCO)c1)CCO', 'composite z-score', -0.0768),
  ('CC(C)CNC(=O)[C@@H]1c2ccccc2C(=O)N(Cc2ccc(OC(F)(F)F)cc2)[C@H]1c1ccc(CO)cc1', 'composite z-score', 0.849),
  ('C=CC[C@]1(C(=O)N2CCCCC2)COC(c2ccc(OCCCO)cc2)=N1', 'composite z-score', 0.586);

---

Measured composite z-score, listed per entry.
Tested on: XIP peptide (Xip251-270)
ASSAY REMARKS: small-molecule binders of XIP peptide, primary screen, biochemical, small-molecule microarray, fluorescence 635/667 nm, 0.5 µg/mL protein (AID 1183)
ASSAY CONDITIONS: small-molecule microarray binding, fluorescence 635 nm; higher = more signal
MEASUREMENT LABEL: composite z-score

INSERT INTO assay_data (molecule, measurement_label, numeric_result) VALUES
  ('COCCOC(=O)N1C(=O)[C@@]2(c3ccccc31)[C@H](C(=O)Nc1nc3ccccc3s1)[C@H]1C(=O)O[C@H](c3ccccc3)[C@H](c3ccccc3)N1[C@@H]2c1ccc(O)cc1', 'composite z-score', 0.748),
  ('CCCCC(=C=CC[C@H](O)c1cccc(OCCO)c1)CCO', 'composite z-score', -0.97),
  ('COCCOC(=O)N1C(=O)[C@@]2(c3cc(C#CCCO)ccc31)[C@H](c1ccccc1OCCO)N1[C@H](c3ccccc3)[C@H](c3ccccc3)OC(=O)[C@H]1[C@@H]2C(=O)NC[C@H](O)c1ccccc1', 'composite z-score', 0.705),
  ('O=C(NCC(F)(F)F)[C@@H]1c2ccccc2C(=O)N(C2Cc3ccccc3C2)[C@H]1c1ccc(CO)cc1', 'composite z-score', -1.33),
  ('C=CCOC(=O)[C@H]1[C@@H]2C(=O)O[C@@H](c3ccccc3)[C@@H](c3ccccc3)N2[C@@H](c2ccc(OCCOC(=O)[C@H]3C[C@H]4C(=O)N5CCC[C@H]5C(=O)N4[C@H]3c3cccc(OCCO)c3)cc2)[C@]12C(=O)Nc1ccccc12', 'composite z-score', 0.809),
  ('CC(C)[C@@H](C(=O)O)n1cc(-c2ccccn2)nn1', 'composite z-score', -0.548),
  ('COc1ccc([Si](C)(C)[C@@H]2[C@@H](CC(=O)N3CCC[C@H]3CO)O[C@]3(C(=O)N(Cc4ccc(N5CCC5=O)cc4)c4ccccc43)[C@H]2C)cc1', 'composite z-score', 0.713),
  ('CC1CC/C=C\[C@H]2OC34C=CCN(C(C)C)C(=O)[C@H]3N(C(CO)C(C)C)C(=O)[C@@H]4C2C(=O)O1 (stereo not given in full)', 'composite z-score', -1.15),
  ('COc1ccc([Si](C)(C)[C@H]2[C@H](CC(=O)N3Cc4ccccc4C[C@H]3CO)O[C@@]3(C(=O)N(Cc4cccc(N5C(=O)COc6ccccc65)c4)c4ccccc43)[C@@H]2C)cc1', 'composite z-score', 0.618),
  ('CCN(CC)c1ccc(N2CC=CC34O[C@@H]5C=CCOC(=O)[C@@H]5[C@H]3C(=O)N(C(C)CO)[C@@H]4C2=O)cc1 (stereo not given in full)', 'composite z-score', -1.73),
  ('Cc1ccc(N2C(=O)c3ccccc3[C@](C)(C(=O)NC3CC3)[C@@H]2c2ccc(CO)cc2)nc1', 'composite z-score', -0.777),
  ('CCCCCCC#C[Si](O[C@H](c1ccccc1)c1cn(Cc2ccccc2)nn1)(C(C)C)C(C)C', 'composite z-score', -0.15),
  ('COCCCNC(=O)[C@@]1(C)c2ccccc2C(=O)N(Cc2cc(F)cc(C(F)(F)F)c2)[C@H]1c1ccc(CO)cc1', 'composite z-score', -1.16),
  ('COc1ccc([Si](C)(C)[C@H]2[C@H](CC(=O)N(CCO)Cc3ccccc3)O[C@@]3(C(=O)N(Cc4ccc(N5CCC5=O)cc4)c4ccccc43)[C@@H]2C)cc1', 'composite z-score', 0.365),
  ('C=C(C1=CCN(S(=O)(=O)c2ccc(C)cc2)C1)[C@@H](OC(C)=O)[C@@H]1CCCN1S(=O)(=O)c1ccccc1[N+](=O)[O-]', 'composite z-score', -0.737),
  ('CC(C)N1CC=CC23O[C@@H]4/C=C\CCCOC(=O)C4[C@H]2C(=O)N(CCCO)[C@@H]3C1=O (stereo not given in full)', 'composite z-score', -0.556),
  ('C=CCC1(CC=C)C[C@H]2CO[C@H](c3ccc(OC)cc3)N2C1=O', 'composite z-score', 0.739),
  ('COC(=O)C1=CC(CCCO)=CC(C2CC2)N(Cc2cc3c(cc2Br)OCO3)C=C1C(=O)OC (stereo not given)', 'composite z-score', 0.0315),
  ('CCOC(=O)C[C@H]1[C@H](OC(=O)Cc2ccc3c(c2)OCO3)[C@@H](NC(=O)c2ccc3ccccc3c2)c2cc(OCCCO)ccc2N1C(=O)c1ccc2ccccc2n1', 'composite z-score', -0.275),
  ('C[N+](C)(C)CCCCNC(=O)[C@@H]1C[C@@H]2C(=O)NCC(=O)N2[C@@H]1c1cccc(OCCO)c1', 'composite z-score', 0.865);

---

ASSAY REMARKS: small-molecule binders of probe aLefty1, primary screen, biochemical, small-molecule microarray, 635/667 nm fluorescence (AID 1153);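 further: score merges spot fluorescence with signal-to-noise ratio from the scanned slide images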
ASSAY CONDITIONS: higher = more signal
composite z-score of 0.06 or higher: class 1. Under 0.06: class 0.

INSERT INTO measurements (compound, class_assignment) VALUES
  ('CC(C)C[C@@H]1NC(=O)[C@@]23C(=O)N[C@@H](Cc4ccccc4)C2[C@H](C)[C@@]2(C)O[C@H]2C3/C=C/C/C=C\CNC(=O)[C@H](Cc2ccccc2)NC1=O (stereo not given in full)', 'class 0'),
  ('CC(C)[Si](C#C[Si](C(C)C)(C(C)C)C(C)C)(O[C@H](C)c1cn([C@H](C)c2ccccc2)nn1)C(C)C', 'class 1'),
  ('C[N+](C)(C)CCCC[C@@H]1NC(=O)[C@H]2C[C@@H](C(=O)NCCCCCN)[C@@H](c3cccc(OCCO)c3)N2C1=O', 'class 1'),
  ('CC(C)C(=C=CC[C@@H](O)c1ccc(CO)o1)CCO', 'class 0'),
  ('O=C1O[C@H](c2ccccc2)[C@H](c2ccccc2)N2[C@H]1[C@@H](C(=O)Nc1nc3ccccc3s1)[C@]1(C(=O)Nc3ccc(C#CCCO)cc31)[C@H]2c1ccccc1OCCO', 'class 1'),
  ('COC(=O)c1c(CC[C@@H](CO)NC(=O)Nc2ccc(OC)cc2)oc(C(=O)Cc2ccccc2)c1C(=O)OC', 'class 0'),
  ('O=C1c2ccccc2[C@](Cc2ccccc2I)(C(=O)O)[C@H](c2ccc(CO)cc2)N1Cc1ccccc1Cl', 'class 1'),
  ('Cc1ccc(S[C@]2(C(=O)NCCN3CCOCC3)CC(=O)N(Cc3cc(C(F)(F)F)cc(C(F)(F)F)c3)[C@@H]2c2ccc(CO)cc2)cc1', 'class 0'),
  ('C[N+](C)(C)CCCC[C@@H]1NC(=O)[C@@H]2C[C@H](C(=O)NCCCCCNC(=O)CS)[C@H](c3ccc(O)cc3)N2C1=O', 'class 0');

---

Tested on: Lefty1
ASSAY REMARKS: Lefty1 binders on small-molecule microarrays, primary screen, biochemical, small-molecule microarray, 635/667 nm fluorescence (AID 1139)
ASSAY CONDITIONS: small-molecule microarray binding, fluorescence 635/667; higher = more signal
Lab note: compare composite z-score against 0.1. Equal or greater, write yes (1). Smaller, write no (0).

INSERT INTO assay_data (compound, class_assignment) VALUES
  ('CC(C)C[C@@H]1NC(=O)[C@@H]2C[C@H](C(=O)NCCCCCNC(=O)CS)[C@H](c3cccc(OCCO)c3)N2C1=O', 'yes (1)'),
  ('NCCCCCCNC(=O)[C@@H]1C[C@@H]2C(=O)N[C@@H](Cc3ccccc3)C(=O)N2[C@@H]1c1ccc(O)cc1', 'yes (1)'),
  ('COc1ccc([Si](C)(C)[C@@H]2[C@@H](CCn3cc(CCO)nn3)O[C@]3(C(=O)N(Cc4ccc(N5C(=O)c6cccc7cccc5c67)cc4)c4ccccc43)[C@H]2C)cc1', 'yes (1)'),
  ('CCOC(=O)C[C@H]1[C@H](OC(=O)c2ccc(-c3ccccc3)cc2)[C@@H](NC(=O)C2CCCCC2)c2cc(OCCCO)ccc2N1C(=O)c1ccc2ccccc2n1', 'no (0)'),
  ('NC(=O)N1C(=O)C2C(C1=O)C1C=C(c3ccc(CO)cc3)C2C(C2CC2)N1Cc1cc2c(cc1Br)OCO2 (stereo not given)', 'yes (1)'),
  ('[N-]=[N+]=NCc1ccccc1C[C@@]1(C(=O)O)N=C(c2ccc(OCCCO)cc2)O[C@@H]1c1ccccc1', 'no (0)'),
  ('COCCOC(=O)N1C(=O)[C@@]2(c3cc(C#CCNC(N)=O)ccc31)[C@H](c1ccccc1OCCO)N1[C@H](c3ccccc3)[C@H](c3ccccc3)OC(=O)[C@H]1[C@@H]2C(=O)Nc1nc2ccccc2s1', 'yes (1)'),
  ('O=C1O[C@@H](c2ccccc2)[C@@H](c2ccccc2)N2[C@@H](c3ccc(OCCO)cc3)[C@]3(C(=O)Nc4ccc(C#CC5(O)CCCCCC5)cc43)[C@@H](C(=O)NC[C@H](O)c3ccccc3)[C@H]12', 'yes (1)'),
  ('CCCCCCC#C[Si](O[C@H](c1ccccc1)c1cn(Cc2ccccc2)nn1)(C(C)C)C(C)C', 'yes (1)'),
  ('CC(C)C[C@@H]1NC(=O)[C@@]23C(=O)N[C@@H](Cc4ccccc4)C2[C@H](C)[C@@]2(C)O[C@H]2C3/C=C/CC/C=C/CNC(=O)[C@@H](C)NC1=O (stereo not given in full)', 'yes (1)'),
  ('CCCC[C@@H](O)C1=C(C)C[C@H]2C(=O)N(C)C(=O)[C@H]2[C@H]1CO', 'yes (1)'),
  ('[N-]=[N+]=NCc1ccccc1C[C@]1(C(=O)NCc2ccccc2)N=C(c2ccc(OCCCO)cc2)O[C@H]1c1ccccc1', 'no (0)'),
  ('CC(C)C(CO)N1C(=O)[C@@H]2C3C(=O)OCCC/C=C\[C@H]3OC23C=CCN(C(C)C)C(=O)[C@@H]13 (stereo not given in full)', 'no (0)'),
  ('CC(C)C(CO)N1C(=O)[C@@H]2[C@H]3C(=O)OCC=C[C@H]3OC23C=CCN(Cc2ccccc2)C(=O)[C@@H]13 (stereo not given in full)', 'no (0)'),
  ('[N-]=[N+]=NCc1ccccc1C[C@@]1(C(=O)NCc2ccccc2)N=C(c2ccc(OCCCO)cc2)O[C@@H]1c1ccccc1', 'no (0)');
